Origin of the recorded values: patent US20230174521A1

Biological target: human DGAT2 (hDGAT2) (Homo sapiens)
# note: exactly 80 nM is not below, so it is NOT MET; use MET for IC50 strictly under it

Solved entries:
C[C@]1(NC(=O)c2ccc3c(c2)c(-c2ccc(F)cc2)cn3-c2cccc(OC(F)F)c2)CCS(=O)(=O)C1 | MET
CC1(NC(=O)c2ccc3c(c2)c(NS(C)(=O)=O)nn3-c2cccc(OC(F)F)c2)CS(=O)(=O)C1 | NOT MET
CC1(NC(=O)c2ccc3c(c2)c(C(O)C(F)(F)F)nn3-c2cccc(OC(F)F)c2)CS(=O)(=O)C1 (single isomer, unassigned) [Example 30b] | NOT MET
CC1(NC(=O)c2cnc3c(c2)c(C(C)(C)O)nn3-c2cccc(OC(F)(F)F)c2)CS(=O)(=O)C1 | NOT MET
CC1(NC(=O)c2ccc3c(c2)c(C(O)C(F)(F)F)nn3-c2cccc(OC(F)F)c2)CS(=O)(=O)C1 (single isomer, unassigned) [Example 30a] | NOT MET
CC(C)c1nn(-c2cccc(OC(F)F)c2)c2ncc(C(=O)N[C@@]3(C)CCS(=O)(=O)C3)cc12 | MET
CC(C)c1nn(-c2cccc(C3CC3)c2)c2ncc(C(=O)NC3(C)CS(=O)(=O)C3)cc12 | MET

// switching to the query molecule
*Q* Quick check: does "CCCc1nn(-c2cccc(OC(F)F)c2)c2ncc(C(=O)N[C@@]3(C)CCS(=O)(=O)C3)cc12" have IC50 under 80 nM?
*A* MET

###

Below, each entry is listed with its recorded IC50.
Molecular target: human DGAT2 (hDGAT2) (Homo sapiens, UniProt Q96PD7)
Sequence (Q96PD7 whole entry): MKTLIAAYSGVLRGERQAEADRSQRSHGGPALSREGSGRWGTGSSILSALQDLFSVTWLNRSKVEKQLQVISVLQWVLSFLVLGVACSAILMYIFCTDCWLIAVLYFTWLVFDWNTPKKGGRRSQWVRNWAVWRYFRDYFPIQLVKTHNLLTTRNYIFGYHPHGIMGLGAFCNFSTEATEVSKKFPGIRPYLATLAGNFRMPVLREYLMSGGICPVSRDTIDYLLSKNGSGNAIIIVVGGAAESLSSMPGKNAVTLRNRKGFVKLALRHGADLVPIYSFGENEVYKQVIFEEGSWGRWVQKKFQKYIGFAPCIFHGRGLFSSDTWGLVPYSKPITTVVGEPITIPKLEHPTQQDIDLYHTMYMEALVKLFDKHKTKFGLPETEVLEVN
A number alone suffices; assume nM.

These recorded examples may help you get a feel for the data.
CCC(O)c1nn(-c2cccc(OC(F)F)c2)c2ccc(C(=O)NC3(C)CS(=O)(=O)C3)cc12 (single isomer, unassigned) [Example 28a] | 24
COc1ccc(-n2nc(NCCc3ccccc3)c3cc(C(=O)NCCCN(C)C)ccc32)cc1 | 4320
CCC(O)c1nn(-c2cccc(OC(F)F)c2)c2ccc(C(=O)NC3(C)CS(=O)(=O)C3)cc12 (single isomer, unassigned) [Example 28b] | 70
Cn1ccc(-c2nn(-c3cccc(OC(F)F)c3)c3ccc(C(=O)NC4(C)CS(=O)(=O)C4)cc23)n1 | 18
CC1(NC(=O)c2ccc3c(c2)c(C(O)C2CC2)nn3-c2cccc(OC(F)F)c2)CS(=O)(=O)C1 (single isomer, unassigned) [Example 29b] | 205
C[C@]1(NC(=O)c2ccc3c(c2)c(Oc2ccc(F)cc2)nn3-c2cccc(OC(F)F)c2)CCS(=O)(=O)C1 | 0.3

Entry "C[C@]1(NC(=O)c2ccc3c(c2)c(S(C)(=O)=O)nn3-c2cccc(OC(F)F)c2)CCS(=O)(=O)C1" : IC50 on human DGAT2 (hDGAT2) (Homo sapiens, UniProt Q96PD7) = 543

Entry "CC1(NC(=O)c2cnc3c(c2)c(C2CCOCC2)nn3-c2cccc(OC(F)F)c2)CS(=O)(=O)C1" : IC50 on human DGAT2 (hDGAT2) (Homo sapiens, UniProt Q96PD7) = 7.1

Entry CC1(NC(=O)c2ccc3c(c2)c(C(O)C(F)(F)F)nn3-c2cccc(OC(F)F)c2)CS(=O)(=O)C1 (racemic) [Example 30] : IC50 on human DGAT2 (hDGAT2) (Homo sapiens, UniProt Q96PD7) = 47

Entry "CC1(NC(=O)c2cnc3c(c2)c(C(C)(C)O)nn3-c2cncc(OC(F)F)c2)CS(=O)(=O)C1" : IC50 on human DGAT2 (hDGAT2) (Homo sapiens, UniProt Q96PD7) = 91

Entry CC(O)c1nn(-c2cccc(OC(F)F)c2)c2ncc(C(=O)NC3(C)CS(=O)(=O)C3)cc12 (single isomer, unassigned) [Example 38b] : IC50 on human DGAT2 (hDGAT2) (Homo sapiens, UniProt Q96PD7) = 54

Entry "C[C@]1(NC(=O)c2ccc3c(c2)c(N2CCOCC2)nn3-c2cccc(OC(F)F)c2)CCS(=O)(=O)C1" : IC50 on human DGAT2 (hDGAT2) (Homo sapiens, UniProt Q96PD7) = 375

Entry "CC(C)(O)Cc1nn(-c2cc(OC(F)F)ccc2F)c2ncc(C(=O)NC3(C)CS(=O)(=O)C3)cc12" : IC50 on human DGAT2 (hDGAT2) (Homo sapiens, UniProt Q96PD7) = 6.4

###

Target: human DGAT2 (hDGAT2) (Homo sapiens, UniProt Q96PD7)
# note: exactly 40 nM is not below, so it is NO; use YES for IC50 strictly under it

Cc1cc2c(cc1C(=O)NC1(C)CS(=O)(=O)C1)c(C(C)C)nn2-c1cccc(OC(F)F)c1 | NO
CC(O)c1nn(-c2cccc(OC(F)F)c2)c2ncc(C(=O)NC3(C)CS(=O)(=O)C3)cc12 (single isomer, unassigned) [Example 38a] | YES
CC1(NC(=O)c2cnc3c(c2)c(C(C)(C)O)nn3-c2cc(OC(F)F)ccc2F)CS(=O)(=O)C1 | YES
Cn1nccc1-n1nc(-c2ccc(F)cc2)c2cc(C(=O)NC3(C)CS(=O)(=O)C3)ccc21 | NO
CC1(NC(=O)c2ccc3c(c2)c(C(O)C(F)F)nn3-c2cccc(OC(F)F)c2)CS(=O)(=O)C1 (racemic) | NO

*Q* Quick check: does CC1(NC(=O)c2ccc3c(c2)c(C(O)C2CC2)nn3-c2cccc(OC(F)F)c2)CS(=O)(=O)C1 (single isomer, unassigned) [Example 29a] have IC50 under 40 nM?
*A* YES
